# System: UACC-62
# Test Protocol: Cytotoxicity against human UACC62 cells assessed as cell growth at 10 uM after 48 hrs by SRB assay
# Assay type: functional
# Test Conditions: UACC-62, 48 h, read-out: Activity
molecules and their reported growth at 10 µM
Value expressed in %; do not type the unit.

# annotated cases, reported growth at 10 µM shown
Molecule	growth at 10 µM, %
Cc1cc(C)n(-c2cn3c(-c4ccc(Cl)cc4)csc3n2)n1	86.9
O=C1CN2C(c3ccc(Cl)cc3)=CSC2=N1	88.7
O=C1CN2C(c3ccccc3)=CSC2=N1	90.3
Cc1ccc(-c2csc3nc(N4NC(=O)CC4=O)cn23)cc1	91.8

Memo: `Cc1cc(C)n(-c2cn3c(-c4ccccc4)csc3n2)n1` , reported growth at 10 µM: 89.4

* * *

# Test Protocol: Cytotoxicity against human UO31 cells assessed as cell growth at 10 uM after 48 hrs by SRB assay
# Assay type: functional
# Test Conditions: UO-31, 48 h, read-out: Activity
Measured Metric: growth at 10 µM (%)
Provide the reading as a plain figure in %.

Solved cases below.
Molecule	Measured Metric	Result Units	Observed Measurement
O=C1CN2C(c3ccccc3)=CSC2=N1	growth at 10 µM	%	61.3
O=C1CN2C(c3ccc(Cl)cc3)=CSC2=N1	growth at 10 µM	%	92.7
O=C1CC(=O)N(c2cn3c(-c4ccc(Cl)cc4)csc3n2)N1	growth at 10 µM	%	111

Entry under test: `O=C1CC(=O)N(c2cn3c(-c4ccccc4)csc3n2)N1` . Its growth at 10 µM was 59.6

Per the records, this compound ( `CC1=NN(c2cn3c(-c4ccccc4)csc3n2)C(=O)C1` ) has growth at 10 µM equal to 59

The recorded growth at 10 µM for entry `Cc1cc(C)n(-c2cn3c(-c4ccc(Cl)cc4)csc3n2)n1` equals 89.6

Quick note, growth at 10 µM for `Cc1cc(C)n(-c2cn3c(-c4ccccc4)csc3n2)n1` landed at 59.2
